B1: Osa-1-4 twister ribozyme (parent)
chain: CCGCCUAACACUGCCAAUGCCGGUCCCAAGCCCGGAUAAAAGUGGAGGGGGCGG

- Variants of: B1
- Procedure Summary: self-cleavage, relative activity (ratio to wild type); higher = more cleavage; co-transcriptional
Measured self-cleavage determines class: low bin: < 0.06; mid bin: ≥ 0.06 and < 0.2; high bin: ≥ 0.2

Variant	Class Name
G50A G54A	high bin
A17C A46U	low bin
C21A G42A	mid bin
A46U G54A	mid bin

Hi, small favor: classify C20U G45U by its self-cleavage when you get a moment. mid bin

Hi, small favor: classify C31G C33G by its self-cleavage when you get a moment. low bin

Hi, small favor: classify G13A G44A by its self-cleavage when you get a moment. low bin

Hi, small favor: classify A40C G54U by its self-cleavage when you get a moment. mid bin

Hi, small favor: classify A16C C14G by its self-cleavage when you get a moment. high bin

Hi, small favor: classify G19A G54C by its self-cleavage when you get a moment. high bin

Hi, small favor: classify G44A G45A by its self-cleavage when you get a moment. mid bin

Hi, small favor: classify C14A C27U by its self-cleavage when you get a moment. low bin

Hi, small favor: classify C32A C52U by its self-cleavage when you get a moment. mid bin
